Test system: acute T-cell leukemia (JURKAT)
method notes: Anti-proliferative activity on JURKAT cell line
Type: cell-based
run parameters: Homo sapiens, 72 h, CellTiterGlo
test readout: IC50 (nM)

Consider the worked cases shown below.
smiles code	IC50 (nM)
CCCN1CCC2(CC1)CC(=O)c1cc(-c3ccc(C(=O)NCc4cncc(F)c4)cc3)ccc1O2	7.07
O=C(NCc1cncc(F)c1)c1ccc(-c2ccc3c(n2)C(=O)CC2(CCN(CC4CCC4)CC2)O3)cc1	154
CC(C)N1CCC2(CC1)CC(=O)c1cc(-c3ccc(C(=O)NCc4cccnc4F)cc3)ccc1O2	3.66
CCCN1CCC2(CC1)CC(=O)c1cc(-c3ccc(C(=O)NCc4cc(C)no4)cn3)ccc1O2	3.54
CCc1cc(CNC(=O)c2ccc(-c3ccc4c(c3)C(=O)CC3(CCN(C(C)C)CC3)O4)cc2)on1	12.2

P: CCCN1CCC2(CC1)CC(=O)c1cc(-c3ccc(C(=O)NCc4cc(C)no4)cc3)ccc1O2
Q: Cc1ccc(CNC(=O)c2ccc(-c3ccc4c(c3)C(=O)CC3(CCN(C(C)C)CC3)O4)c(F)c2)cn1
Would you mind telling me which has the lower recorded IC50 between P and Q ? The response must carry the label of the picked entry.
P

1: CC(C)N1CCC2(CC1)Oc1ccc(-c3ccc(C(=O)NCc4cncc(F)c4)cc3)cc1C(=O)N2C
2: CC(C)N1CCC2(CC1)Oc1ccc(-c3ccc(C(=O)CCc4cncs4)cc3)cc1C(=O)N2C
Param pair: 1 , 2 . Output: the one whose IC50 is numerically greater. Bench note: the answer is the label of the chosen record.
2

---

System: acute T-cell leukemia (JURKAT)
method notes: Anti-proliferative activity on JURKAT cell line
Format: cell-based
run parameters: Homo sapiens, 72 h, CellTiterGlo
test readout: IC50 (nM)

smiles code	subject of test	units text	quantitative readout
CC(C)N1CCC2(CC1)CC(=O)c1cc(-c3ccc(C(=O)NCc4cncc(F)c4)cc3)ccc1O2	acute T-cell leukemia (JURKAT)	nM	20.4

a: CC(C)N1CCC2(CC1)CC(=O)c1cc(-c3ccc(C(=O)NCc4cnn(C)c4)cn3)ccc1O2
b: CCCCONC(=O)c1ccc(-c2ccc3c(c2)C(=O)CC2(CCN(C(C)C)CC2)O3)nc1
c: CCN1CCC2(CC1)CC(=O)c1cc(-c3ccc(C(=O)NCc4cncs4)cn3)ccc1O2
d: Cc1ccc(CNC(=O)c2ccc(-c3ccc4c(c3)C(=O)N(C)C3(CCN(C(C)C)CC3)O4)cc2)cn1
Let's sort these by IC50, smallest first. Go ahead? Sort the labels as requested; that list is your answer.
d, b, c, a

---

System: B-cell acute lymphocytic leukemia (SUP-B15)
method notes: Anti-proliferative activity on SUP-B15 cell line
Assay type: cell-based
run parameters: Homo sapiens, SUP-B15, 72 h, CellTiterGlo
test readout: IC50 (nM)

Consider the reported IC50 for these molecules:
smiles code	IC50 [nM]
CC(C)N1CCC2(CC1)CC(=O)c1cc(-c3ccc(C(=O)NCc4cncc(F)c4)cc3)ccc1O2	1.1
CCN1CCC2(CC1)CC(=O)c1cc(-c3ccc(C(=O)NCc4cncs4)cn3)ccc1O2	5.15
Cc1cc(CNC(=O)c2ccc(-c3ccc4c(c3)C(=O)CC3(CCN(C(C)C)CC3)O4)cc2)no1	1.17
CCCCN1CCC2(CC1)CC(=O)c1cc(-c3ccc(C(=O)NCc4cncs4)cn3)ccc1O2	1.03
CC(C)N1CCC2(CC1)Oc1ccc(-c3ccc(C(=O)NCc4cncs4)cn3)cc1C(=O)N2C	2.14

1: COCCCN1CCC2(CC1)CC(=O)c1cc(-c3ccc(C(=O)NCc4cncs4)cn3)ccc1O2
2: CCCN1CCC2(CC1)CC(=O)c1cc(-c3ccc(C(=O)NCc4cncc(F)c4)cc3)ccc1O2
3: CC(C)N1CCC2(CC1)Oc1ccc(-c3ccc(C(=O)NCc4cnn(C)c4)cn3)cc1C(=O)N2C
4: CCCN1CCC2(C=Cc3cc(-c4ccc(C(=O)NCc5cc(C)no5)cn4)ccc3O2)CC1
Sort the 4 molecules by IC50; largest first, smallest last. Write the labels, ordered according to the request.
3, 1, 4, 2
(3: 20.9 nM, 1: 1.83 nM, 4: 1.04 nM, 2: 0.556 nM)

A: COCCCN1CCC2(C=Cc3cc(-c4ccc(C(=O)NCc5cncs5)cn4)ccc3O2)CC1
B: CC(C)N1CCC2(CC1)Oc1ccc(-c3ccc(C(=O)CCc4cncs4)cc3)cc1C(=O)N2C
C: CC(C)N1CCC2(CC1)Oc1ccc(-c3ccc(C(=O)NCc4cncc(F)c4)cc3)cc1C(=O)N2C
D: CC(C)N1CCC2(CC1)CC(=O)c1cc(-c3ccc(C(=O)NCc4cnn(C)c4)cn3)ccc1O2
Order the records by IC50, with each subsequent value no larger than the one before. Give the labels in the order requested.
D, B, A, C

a: CC(C)N1CCC2(CC1)CC(=O)c1cc(-c3ccc(C(=O)NCc4cccnc4F)cc3)ccc1O2
b: Cc1cc(CNC(=O)c2ccc(-c3ccc4c(c3)C(=O)NC3(CCN(C(C)C)CC3)O4)nc2)on1
Between a and b , whose measured IC50 reads higher? Respond with the label that goes with your answer.
b
(b: 3.19 nM, a: 1.47 nM)

a: Cc1ccc(CNC(=O)c2ccc(-c3ccc4c(c3)C(=O)N(C)C3(CCN(C(C)C)CC3)O4)cc2)cn1
b: CCCN1CCC2(CC1)CC(=O)c1cc(-c3ccc(C(=O)NCc4cc(C)no4)cc3)ccc1O2
c: CCCCONC(=O)c1ccc(-c2ccc3c(c2)C(=O)CC2(CCN(C(C)C)CC2)O3)nc1
d: O=C(NCc1cncc(F)c1)c1ccc(-c2ccc3c(n2)C(=O)CC2(CCN(CC4CCC4)CC2)O3)cc1
# rank by IC50, ascending (min first) I'd appreciate it if you listed the labels in the requested order.
a, b, c, d
